// provenance: ChEMBL document CHEMBL1671698

experiment: AUC in HIV-1 infected children with body weight >17 kg at 8 mg/kg, po every 24 hrs coadministered with 240 mg/m2 of didanosine and efavirenz by HPLC; assay type: ADME, organism-based; parameters: dose 8 mg/kg, route oral; details: human, plasma
measurement kind: AUC at 24 h (ng·h/mL)
Give the value, in units of ng·h/mL, as a plain number.

Q: Quickly give me recorded AUC at 24 h for Nc1ccn([C@@H]2CS[C@H](CO)O2)c(=O)n1
Ans: 9100

====

assay: Cmax in HIV-1 infected children aged 2.1 to 12.8 years at 8 mg/kg, po every 24 hrs coadministered with 8 mg/kg abacavir by HPLC; settings: human, in vivo
measurement kind: Cmax

Q: Give the value of Cmax reported for the following: Nc1ccn([C@@H]2CS[C@H](CO)O2)c(=O)n1
Ans: 2090 ng/mL

====

experiment: AUC in HIV-1 infected children with body weight <17 kg at 8 mg/kg, po every 24 hrs coadministered with 240 mg/m2 of didanosine and efavirenz by HPLC; type: ADME, organism-based; parameters: dose 8 mg/kg, route oral; conditions: human, plasma
measurement kind: AUC at 24 h (ng·h/mL)
Reply with just the number (in ng·h/mL).

Q: Provide only the value of recorded AUC at 24 h for Nc1ccn([C@@H]2CS[C@H](CO)O2)c(=O)n1
Ans: 8100

====

assay: AUC (0 to tau) in HIV-1 infected children aged 6.9 years at 4 mg/kg, po every 12 hrs coadministered with nevirapine and stavudine by HPLC; format: ADME, organism-based; parameters: dose 4 mg/kg, route oral; settings: human, plasma
measurement kind: AUC tau at 12 h (ng·h/mL)
The figure you give is taken to be in ng·h/mL; do not add the unit.

Q: Indicate the recorded AUC tau at 12 h value for this compound: Nc1ccn([C@@H]2CS[C@H](CO)O2)c(=O)n1
Ans: 5420

====

experiment: AUC (0 to tau) in HIV-1 infected children aged 2.1 to 12.8 years at 4 mg/kg, po every 12 hrs coadministered with 8 mg/kg abacavir by HPLC; type: ADME, organism-based; conditions: human, plasma
measurement kind: AUC tau at 12 h (ng·h/mL)
Report the figure in ng·h/mL without appending any unit label.

Q: Assign AUC tau at 12 h to the following record: Nc1ccn([C@@H]2CS[C@H](CO)O2)c(=O)n1 [LAMIVUDINE]
Ans: 4440

====

assay: AUC (0 to tau) in HIV-1 infected children aged 8.5 to 12.3 years at 4 mg/kg, po every 12 hrs by HPLC; format: ADME, organism-based; parameters: dose 4 mg/kg, route oral; conditions: human, plasma
measurement kind: AUC tau at 12 h (ng·h/mL)
// units = ng·h/mL; emit number, no label

Q: Tell us which AUC tau at 12 h value is on record for Nc1ccn([C@@H]2CS[C@H](CO)O2)c(=O)n1
Ans: 6540

====

assay: AUC (0 to tau) in HIV-1 infected children aged 2.1 to 12.8 years at 8 mg/kg, po every 24 hrs coadministered with 8 mg/kg abacavir by HPLC; details: human, plasma
measurement kind: AUC tau at 24 h (ng·h/mL)
Report the figure in ng·h/mL without appending any unit label.

Q: Report AUC tau at 24 h, nothing else, for this molecule: Nc1ccn([C@@H]2CS[C@H](CO)O2)c(=O)n1
Ans: 9800

====

experiment: Cmax in HIV-1 infected children aged 2.5 to 14 years at 8 mg/kg, po every 24 hrs coadministered with 240 mg/m2 of didanosine and efavirenz by HPLC; format: ADME, organism-based; parameters: dose 8 mg/kg, route oral; settings: human, in vivo
measurement kind: Cmax

Q: State its Cmax for this molecule: Nc1ccn([C@@H]2CS[C@H](CO)O2)c(=O)n1
Ans: 1700 ng/mL

====

assay: Cmax in HIV-1 infected children aged 2.5 to 4.8 years at 4 mg/kg, po every 12 hrs by HPLC; type: ADME, organism-based; parameters: dose 4 mg/kg, route oral; conditions: human, in vivo
measurement kind: Cmax (ng/mL)
Give a bare numeral; the unit ng/mL is implied.

Q: Return reported Cmax. Input compound: Nc1ccn([C@@H]2CS[C@H](CO)O2)c(=O)n1 [LAMIVUDINE]
Ans: 980

====

assay: AUC (0 to tau) in HIV-1 infected children aged 2.5 to 14 years at 8 mg/kg, po every 24 hrs coadministered with 240 mg/m2 of didanosine and efavirenz by HPLC; assay type: ADME, organism-based; design: dose 8 mg/kg, route oral; conditions: human, plasma
measurement kind: AUC tau at 24 h (ng·h/mL)
The reply should be a number in ng·h/mL, with the unit left off.

Q: Answer with the recorded AUC tau at 24 h for the molecule listed here: Nc1ccn([C@@H]2CS[C@H](CO)O2)c(=O)n1
Ans: 7800
